Origin of values: ChEMBL document CHEMBL1255454

MIC by entry:
# Tested on: Pseudomonas aeruginosa
# Experimental Protocol: Antimicrobial activity against Pseudomonas aeruginosa PAK after 16 to 20 hrs by broth microdilution assay
# Type: functional

H-WWKDWWERW-NH2; > 500 µg/mL
H-AAKHAAHRA-NH2; > 500 µg/mL
H-LIKHILHRL-NH2; > 500 µg/mL
H-WWHSWWSTW-NH2; > 125 µg/mL
H-FHFHLHFPSGSPFIKHFIHRF-NH2; > 500 µg/mL

get_value(item= "H-WWSYWWTQW-NH2" , readout=MIC) returns > 125 µg/mL

Short answer for "H-WWQDWWNEW-NH2" : MIC was > 500 µg/mL

Entry "H-WWYNWWQDW-NH2" , MIC reported as > 500 µg/mL

Record "H-FIKHFIHRF-NH2" . Reported MIC: > 500 µg/mL
